# Test system: KMS-12-PE cells expressing BCL-2 G101V
# Experimental details: CellTiter-Glo cell viability, KMS-12-PE cells overexpressing BCL-2 G101V
# Condition description: read-out: S55746 LC50, KMS-12-PE overexpressing BCL-2 G101V, 24 h, mean ± SD, n = 3
Observation type: CC50 (µM)
Numbers only; they are read as µM.

q: CC50 of `O=C(c1cc(-c2cc3c(cc2C(=O)N2Cc4ccccc4C[C@H]2CN2CCOCC2)OCO3)n2c1CCCC2)N(c1ccccc1)c1ccc(O)cc1` on KMS-12-PE cells expressing BCL-2 G101V?
a: 2.7
